All figures here come from patent US9556150B2.

- measured.target: Bruton's Tyrosine Kinase (BTK), inactivated state (Homo sapiens (Human))
- method.notes: Bruton's Tyrosine Kinase (BTK) Inhibition TR-FRET (Time Resolved FRET) competition assay
- protocol.conditions: TR-FRET competition with Kinase Tracer 178, BTK-Eu complex, 18-24 h at 14° C.
value.kind: IC50 (nM)
Quick note: give the figure in nM, leave out the unit.

Task: Any idea what its IC50 is? The compound is Nc1c(C(=O)c2cc3cc(C(=O)N4CCOCC4)ccc3[nH]2)cnn1-c1ccc(Oc2cccc(F)c2F)cc1Br
Output: 1.3

Task: Repeat with CN(C)C(=O)c1ccccc1Oc1ccc(-n2ncc(C(=O)c3cc4cc(C(=O)O)ccc4[nH]3)c2N)c(Cl)c1
Output: 12

Task: Repeat with CNC1CCN(C(=O)c2ccc3[nH]c(C(=O)c4cnn(-c5ccc(Oc6ccccc6C(=O)N(C)C)cc5Cl)c4N)cc3c2)CC1
Output: 2.1

----------
- measured.target: Bruton's Tyrosine Kinase (BTK), inactivated state (Homo sapiens (Human), UniProt Q06187)
- Sequence (Q06187 whole entry): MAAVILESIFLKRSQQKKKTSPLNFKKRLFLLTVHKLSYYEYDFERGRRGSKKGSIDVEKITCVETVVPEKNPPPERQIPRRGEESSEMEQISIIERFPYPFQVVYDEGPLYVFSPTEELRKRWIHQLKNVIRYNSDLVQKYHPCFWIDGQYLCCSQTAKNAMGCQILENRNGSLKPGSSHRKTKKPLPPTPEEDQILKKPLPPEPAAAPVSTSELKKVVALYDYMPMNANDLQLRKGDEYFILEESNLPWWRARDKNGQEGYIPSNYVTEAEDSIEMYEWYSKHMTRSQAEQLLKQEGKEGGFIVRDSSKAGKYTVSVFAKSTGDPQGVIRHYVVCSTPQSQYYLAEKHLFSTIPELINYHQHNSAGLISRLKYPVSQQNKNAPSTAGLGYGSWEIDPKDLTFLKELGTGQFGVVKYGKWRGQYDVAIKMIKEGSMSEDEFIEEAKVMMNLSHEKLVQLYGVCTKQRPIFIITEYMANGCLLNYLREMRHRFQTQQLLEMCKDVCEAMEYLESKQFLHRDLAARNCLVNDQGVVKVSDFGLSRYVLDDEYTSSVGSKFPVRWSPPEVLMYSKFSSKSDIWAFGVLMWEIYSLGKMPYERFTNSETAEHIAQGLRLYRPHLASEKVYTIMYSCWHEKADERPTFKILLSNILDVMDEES
- method.notes: Bruton's Tyrosine Kinase (BTK) Inhibition TR-FRET (Time Resolved FRET) competition assay
- protocol.conditions: TR-FRET competition with Kinase Tracer 178, BTK-Eu complex, 18-24 h at 14° C.
Counter-ions that a name gives are not always drawn.
Recorded IC50 by entry
Number first, unit second.

Please review the following examples before continuing.
molecule	IC50
Nc1c(C(=O)c2cc3cc(C(=O)N4CCOCC4)ccc3[nH]2)cnn1-c1ccc(Oc2cccc(F)c2F)cc1 [Example I-12]	13 nM
COC(=O)c1ccc2[nH]c(C(=O)c3cnn(-c4ccc(Oc5cccc(C#N)c5)cc4C)c3N)cc2c1 [Example I-31]	29 nM
Cc1cc(Oc2cccc(Cl)c2)ccc1-n1ncc(C(=O)c2cc3cc(C(=O)N4CCOCC4)ccc3[nH]2)c1N [Example I-16]	3.6 nM
NC(=O)c1cccc(Oc2ccc(-n3ncc(C(=O)c4cc5cc(C(=O)N6CCOCC6)ccc5[nH]4)c3N)c(Cl)c2)c1 [Example I-37]	50 nM
Nc1c(C(=O)c2cc3cc(C(=O)N4CCOCC4)ccc3[nH]2)cnn1-c1ccc(Oc2cc(F)ccc2F)nc1 [Example I-13]	530 nM
CN(C)C(=O)c1ccccc1Oc1ccc(-n2ncc(C(=O)c3cc4cc(C(=O)N5CCNCC5)ccc4[nH]3)c2N)c(Cl)c1 [Example I-51, acetic acid salt]	1.1 nM
Cc1cc(Oc2cccc(F)c2F)ccc1-n1ncc(C(=O)c2cc3cc(C(=O)O)ccc3[nH]2)c1N [Example I-26]	14 nM
N#Cc1cccc(Oc2ccc(-n3ncc(C(=O)c4cc5cc(C(=O)O)ccc5[nH]4)c3N)c(Cl)c2)c1 [Example I-34]	25.1 nM

Task: Any idea what its IC50 is? The molecule is Cc1cc(Oc2cccc(F)c2F)cc(C)c1-n1ncc(C(=O)c2cc3cc(C(=O)N4CCOCC4)ccc3[nH]2)c1N [Example I-24]
Output: 35 nM

Task: Repeat with Cc1cc(Oc2ccccc2F)ccc1-n1ncc(C(=O)c2cc3cc(C(=O)N4CCOCC4)ccc3[nH]2)c1N [Example I-2]
Output: 4.6 nM
